Tested on: MAPK14 (rat)
procedure text: Pharmacokinetic Studies
metric name: AUC (ng·h/mL)
Give the value in ng·h/mL but do not write ng·h/mL after it.

> print(dat)
                           molecular.string  data.value
1  COCCCNc1nccc(-c2[nH]c([C@H]3OC[C@@](C)(C(=O)NCCOC)CO3)nc2-c2ccc(F)cc2)n1         138

Please look up its AUC: CC(C)NC(=O)[C@]1(C)CO[C@@H](c2nc(-c3ccc(F)cc3)c(-c3ccnc(NCC4CC4)n3)[nH]2)OC1 412

###

system name: MAPK14 (human) (UniProt Q16539)
Sequence (Q16539 whole entry, looked up): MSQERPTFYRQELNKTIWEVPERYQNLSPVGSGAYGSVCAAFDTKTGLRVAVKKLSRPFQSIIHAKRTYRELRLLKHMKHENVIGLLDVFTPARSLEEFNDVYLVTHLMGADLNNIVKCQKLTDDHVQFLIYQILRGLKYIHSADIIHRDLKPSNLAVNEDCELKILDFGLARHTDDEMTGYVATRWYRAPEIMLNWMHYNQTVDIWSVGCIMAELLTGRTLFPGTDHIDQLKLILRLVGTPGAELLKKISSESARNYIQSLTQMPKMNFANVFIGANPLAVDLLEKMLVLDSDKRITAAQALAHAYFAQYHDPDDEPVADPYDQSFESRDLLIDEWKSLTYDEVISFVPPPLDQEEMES
metric name: IC50 (nM)
Give the value in nM but do not write nM after it.

The following compounds have reported results that may help.
> print(dat)
                           molecular.string  metric.name  data.value
1  COCCCNc1nccc(-c2[nH]c([C@H]3OC[C@@](C)(C(=O)NCCOC)CO3)nc2-c2ccc(F)cc2)n1         IC50          71
2  C=CCNc1nccc(-c2[nH]c([C@H]3OC[C@@](C)(C(=O)NCCOC)CO3)nc2-c2ccc(F)cc2)n1         IC50          73
3  C[C@]1(C(=O)N2CCOCC2)CO[C@H](c2nc(-c3ccc(F)cc3)c(-c3ccncc3)[nH]2)OC1         IC50          60

Please look up its IC50: CCCNC(=O)[C@]1(C)CO[C@@H](c2nc(-c3ccc(F)cc3)c(-c3ccnc(NCCCOC)n3)[nH]2)OC1 3.5

###

Tested on: MAPK14 (rat)
procedure text: Pharmacokinetic Studies
metric name: AUC

The following compounds have reported results that may help.
> print(dat)
                           molecular.string  metric.name   data.value
1  CN(C)C(=O)[C@]1(C)CO[C@@H](c2nc(-c3ccc(F)cc3)c(-c3ccnc(NCc4ccccn4)n3)[nH]2)OC1          AUC  529 ng·h/mL
2  CN1CCN(C(=O)[C@]2(C)CO[C@@H](c3nc(-c4ccc(F)cc4)c(-c4ccnc(NCC5CC5)n4)[nH]3)OC2)CC1          AUC  541 ng·h/mL
3  C[C@]1(C(=O)NC2CC2)CO[C@H](c2nc(-c3ccc(F)cc3)c(-c3ccnc(NCC4CC4)n3)[nH]2)OC1          AUC  288 ng·h/mL
4  CN(C)C(=O)[C@]1(C)CO[C@@H](c2nc(-c3ccc(F)cc3)c(-c3ccnc(NCC4CC4)n3)[nH]2)OC1          AUC  276 ng·h/mL
5  C=CCNc1nccc(-c2[nH]c([C@H]3OC[C@@](C)(C(=O)NCCOC)CO3)nc2-c2ccc(F)cc2)n1          AUC  169 ng·h/mL

Please look up its AUC: COCCNc1nccc(-c2[nH]c([C@H]3OC[C@@](C)(C(=O)NCC4CC4)CO3)nc2-c2ccc(F)cc2)n1 121 ng·h/mL

Please look up its AUC: CCCNC(=O)[C@]1(C)CO[C@@H](c2nc(-c3ccc(F)cc3)c(-c3ccnc(NCc4ccco4)n3)[nH]2)OC1 257 ng·h/mL

Please look up its AUC: CCCNC(=O)[C@]1(C)CO[C@@H](c2nc(-c3ccc(F)cc3)c(-c3ccnc(NCCCOC)n3)[nH]2)OC1 738 ng·h/mL
